Below: a set of entries, each annotated with reported Signal/background.
# subject_of_test: T1, COX14 peptide complexed with HLA-A*02:01 on T2 cells (human)
# T1 construct: whole, on cells
# experiment: flow cytometry, peptide-loaded T2 cells;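 also: binding of single-chain Fv antibody constructs, raised in XenoMouse, to peptide-pulsed T2 cells measured by flow cytometry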
experimental_endpoint: Signal/background

INSERT INTO measurements (binder, experimental_endpoint, endpoint_result) VALUES
  ('18089-C9 (scFv, scFv in bacterial lysate, detected with anti-Flag M2) scFv: EVQLLESGPTLVKPTQTLTLTCTFSGFSFTTHKMGVDWIRQPPGKALEWLALIYWNDDKRYSPSLQSRLTITKDTSKNQVVLTMTNMDPVDTATYYCAYRRYNWNYENWFDPWGQGTLVTVSSGGGGSGGGGSGGGGSELQMTQSPSSLSASVGDRVTITCRASQFISSYLNWYQQKPGKAPKLLIYAASSLQSGVPSRFSGRGSGTDFTLTISSLQPEDFATYYCQQSYSTPFTFGPGTKVEIK', 'Signal/background', 1),
  ('18093-B11 (scFv, scFv in bacterial lysate, detected with anti-Flag M2) scFv: EVQLLESGGGLVKPGGSLRLSCAASGFTFSDYYMSWIRQAPGKGLEWVSYISKSGSTIYYADSVKGRFTISRDNAKNSLYLQMNSLRAEDTAVYYCATYNYGHFDYWGQGTLVTVSSGGGGSGGGGSGGGGSELVLTQPPSVSVAPGQTARITCGGNNIGSKSVHWYQQKPGQAPVLVVYDDSDRPSGIPERFSGSNSGNTATLTISRVEAGDEADYYCQVWDSSSDHHVVFGGGTKLTVL', 'Signal/background', 1.2),
  ('18179-G12 (scFv, scFv in bacterial lysate, detected with anti-Flag M2) scFv: EVQLLESGAEVKKPGASVKVSCKASGYTFTRNGLSWVRQAPGQGLEWMGWISGYNGDTNYAQKLQGRGTMTTDTSTSTAYMELRSLRSDDTAVYYCARGRATFDYWGQGTLVTVSSGGGGSGGGGSGGGGSELVMTQSPSSLSASVGDRVTITCRASQGISNYLAWYQQKPGKVPKLLISAASTLQSGVPSRFSGSGSGTDFTLTISSLQPEDVATYYCQKYNSAPFTFGPGTKLEIK', 'Signal/background', 1.2);
